Test: Cytotoxicity against golden hamster CER cells after 2 days by neutral red uptake assay
Format: cell-based, Mesocricetus auratus
Conditions: read-out: TC50
RECORDED METRIC: CC50 at 48 h (µg/mL)
Respond with the bare value in µg/mL.

INSERT INTO measurements (smiles_notation, recorded_metric, result_value) VALUES
  ('C[C@H]1[C@H](C)CC[C@]2(C(=O)O[C@@H]3O[C@H](CO)[C@@H](O)[C@H](O)[C@H]3O)CC[C@]3(C(=O)O)C(=CC[C@@H]4[C@@]5(C)CC[C@H](O[C@@H]6O[C@H](C)[C@H](O)[C@H](O[C@@H]7O[C@H](CO)[C@@H](O)[C@H](O)[C@H]7O)[C@H]6O)C(C)(C)[C@@H]5CC[C@]43C)[C@H]12', 'CC50 at 48 h', 80),
  ('C[C@H]1[C@H](C)CC[C@]2(C(=O)O)CC[C@]3(C(=O)O[C@@H]4O[C@H](CO)[C@@H](O)[C@H](O)[C@H]4O)C(=CC[C@@H]4[C@@]5(C)CC[C@H](O[C@@H]6O[C@H](C)[C@H](O)[C@H](O[C@@H]7O[C@H](CO)[C@@H](O)[C@H](O)[C@H]7O)[C@H]6O)C(C)(C)[C@@H]5CC[C@]43C)[C@H]12', 'CC50 at 48 h', 100);

Let us examine a further case.
response.value for `C[C@H]1[C@H](C)CC[C@]2(C(=O)O[C@@H]3O[C@H](CO)[C@@H](O)[C@H](O)[C@H]3O)CC[C@]3(C(=O)O)C(=CC[C@@H]4[C@@]5(C)CC[C@H](O[C@@H]6O[C@H](C)[C@@H](O)[C@H](O)[C@H]6O)C(C)(C)[C@@H]5CC[C@]43C)[C@H]12` (field: CC50 at 48 h) = 80

* * *

Assay: Cytotoxicity against golden hamster CER cells after 2 days by neutral red uptake assay
Assay type: cell-based, Mesocricetus auratus
Conditions: read-out: TC50
RECORDED METRIC: CC50 at 48 h (µg/mL)
Lab book: enter the figure in µg/mL, no units written.

Lab note: measured CC50 at 48 h of `C[C@H]1[C@H](C)CC[C@]2(C(=O)O)CC[C@]3(C(=O)O)C(=CC[C@@H]4[C@@]5(C)CC[C@H](O[C@@H]6O[C@H](C)[C@H](O)[C@H](O[C@@H]7O[C@H](CO)[C@@H](O)[C@H](O)[C@H]7O)[C@H]6O)C(C)(C)[C@@H]5CC[C@]43C)[C@H]12` was 100
